System: 624824-186-R-J2-PDC multicell spheroids, viability;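 further: spheroids exposed to agents for 7 days before viability read; 100% = DMSO vehicle treated spheroids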
PROTOCOL_DETAILS: Anticancer human tumor 624824-186-R-J2-PDC patient-derived colon adenocarcinoma cell line growth inhibition [PI3K]
EXPERIMENTAL_PARAMETERS: second compound 1 µM; first compound 3.16 µM; active compounds read low
Description: Combinatorial screen of targeted agents with the PI3K inhibitors inavolisib, alpelisib, duvelisib, and copanlisib in multi-cell type tumor spheroids A high-throughput screen of multi-cell type tumor spheroids was designed to identify active combinations of targeted small molecules and PI3K pathway inhibitors. […] Compounds. […] If the clinical Cmax for an agent had not been determined, the highest concentration tested was 10 microM. […]
MEASUREMENT_LABEL: viability, T/C

Q) Which viability, T/C is reported for this compound? Cn1nccc1Nc1nccc(-c2ccn(C(CO)c3ccc(Cl)c(F)c3)c(=O)c2)n1 (stereo unspecified) + Cc1nc(NC(=O)N2CCCC2C(N)=O)sc1-c1ccnc(C(C)(C)C(F)(F)F)c1
A) 76.3%
